Assay: Aqueous solubility of the compound in phosphate buffered saline after 90 mins by laser nephelometry at pH 4
Assay type: physicochemical
quantityKind: solubility kinetic at 1.5 h

C/C(=N\OC(=O)c1ccc(CN)cc1)[C@H]1CC[C@H]2[C@@H]3CCC4=CC(=O)CC[C@]4(C)[C@H]3CC[C@]12C.Cl    < 30 µM
C/C(=N\OC(=O)c1ccc(CN2CCN(C)CC2)cc1)[C@H]1CC[C@H]2[C@@H]3CCC4=CC(=O)CC[C@]4(C)[C@H]3CC[C@]12C    < 30 µM
CO/N=C(\C)[C@H]1CC[C@H]2[C@@H]3CCC4=CC(=O)CC[C@]4(C)[C@H]3CC[C@]12C    < 25 µM

Q) Entry C/C(=N\OC(=O)C1CC[N+](C)(C)CC1)[C@H]1CC[C@H]2[C@@H]3CCC4=CC(=O)CC[C@]4(C)[C@H]3CC[C@]12C.[I-] : reported solubility kinetic at 1.5 h = ?
A) > 500 µM

Q) solubility kinetic at 1.5 h for C/C(=N\OC(=O)C1CCN(C)CC1)[C@H]1CC[C@H]2[C@@H]3CCC4=CC(=O)CC[C@]4(C)[C@H]3CC[C@]12C ?
A) > 660 µM

Q) Look at this compound and give its reported solubility kinetic at 1.5 h. C/C(=N\OC(=O)C[N+](C)(C)C)[C@H]1CC[C@H]2[C@@H]3CCC4=CC(=O)CC[C@]4(C)[C@H]3CC[C@]12C.[I-]
A) > 540 µM

Q) // lookup solubility kinetic at 1.5 h for C/C(=N\OC(=O)[C@@H]1CCCNC1)[C@H]1CC[C@H]2[C@@H]3CCC4=CC(=O)CC[C@]4(C)[C@H]3CC[C@]12C.Cl
A) > 500 µM

Q) Can you share its solubility kinetic at 1.5 h? I mean this compound: C/C(=N\OC(=O)[C@@H](N)C(C)C)[C@H]1CC[C@H]2[C@@H]3CCC4=CC(=O)CC[C@]4(C)[C@H]3CC[C@]12C.Cl
A) > 645 µM

Q) Which solubility kinetic at 1.5 h is listed for CC(=O)[C@H]1CC[C@H]2[C@@H]3CCC4=C/C(=N/O)CC[C@]4(C)[C@H]3CC[C@]12C ?
A) < 45 µM
